Where these numbers come from: paper PMC3856698

- MEASURED_ON: SsoPTP (Saccharolobus solfataricus, UniProt Q97VZ7)
- Sequence (Q97VZ7 1-161): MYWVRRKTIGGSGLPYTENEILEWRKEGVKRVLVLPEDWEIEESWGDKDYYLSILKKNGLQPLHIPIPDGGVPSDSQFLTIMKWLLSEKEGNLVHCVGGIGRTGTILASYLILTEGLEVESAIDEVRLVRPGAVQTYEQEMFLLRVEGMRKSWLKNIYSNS
PARAMETER_MEASURED: pKi
Give bare numbers, as −log10 of the molar value.

q: Can you look up the measured pKi of O=P(O)(O)O [Inorganic phosphate] for me?
a: 3.27

* * *

- MEASURED_ON: PTP1B (Homo sapiens)
- Sequence (P18031 1-321 limits assumed): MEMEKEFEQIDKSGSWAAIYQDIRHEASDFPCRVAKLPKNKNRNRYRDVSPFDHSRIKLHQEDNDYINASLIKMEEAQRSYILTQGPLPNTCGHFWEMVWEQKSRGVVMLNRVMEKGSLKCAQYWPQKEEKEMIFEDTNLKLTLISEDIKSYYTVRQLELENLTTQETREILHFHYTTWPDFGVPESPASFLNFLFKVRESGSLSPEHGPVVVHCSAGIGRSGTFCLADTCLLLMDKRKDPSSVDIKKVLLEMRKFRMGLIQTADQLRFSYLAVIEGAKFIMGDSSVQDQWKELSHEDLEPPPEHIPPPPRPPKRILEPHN
PARAMETER_MEASURED: pKi
Answers are plain numbers, as −log10 of the molar value.

q: Could you tell me which pKi is on file for O=P(O)(O)O [Inorganic phosphate] ?
a: 2.43

* * *

- MEASURED_ON: VHR (Homo sapiens)
- Sequence (P51452 whole entry): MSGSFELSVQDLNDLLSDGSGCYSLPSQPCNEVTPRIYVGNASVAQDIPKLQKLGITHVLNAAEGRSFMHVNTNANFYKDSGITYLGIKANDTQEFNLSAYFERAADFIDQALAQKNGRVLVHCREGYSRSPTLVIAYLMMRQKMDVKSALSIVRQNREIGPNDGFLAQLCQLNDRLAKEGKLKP
PARAMETER_MEASURED: pKi
Give bare numbers, as −log10 of the molar value.

q: Param item = O=P(O)(O)O [Inorganic phosphate] ; retrieve measured pKi.
a: 3.15

* * *

- MEASURED_ON: VHZ (LDP3) (Homo sapiens)
- Sequence (Q9BVJ7 1-150): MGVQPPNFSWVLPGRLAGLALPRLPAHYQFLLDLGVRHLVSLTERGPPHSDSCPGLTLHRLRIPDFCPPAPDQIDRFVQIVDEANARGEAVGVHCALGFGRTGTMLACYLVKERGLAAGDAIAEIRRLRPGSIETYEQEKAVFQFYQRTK
Assign pKi to each entry below.
Numbers only, as −log10 of the molar value.

Observe how each entry below is paired with its result.
O=S(=O)(O)O [Sulfate] : 2.34
NC(CO)(CO)CO : 1.06
O=S(=O)(O)CCN1CCN(CCO)CC1 : 1.59
O=C(O)CN(CCN(CC(=O)O)CC(=O)O)CC(=O)O : 1.66
O=P(O)(O)O [Inorganic phosphate] : 3.17

With those in mind, consider the next compound.
q: Entry [O]=[V]([OH])([OH])[OH] [Vanadate] : reported pKi = ?
a: 5.57
